Each entry below lists one item and its recorded DF norm AVERAGE OR10a value.
molecular target: Drosophila OR10a (Drosophila melanogaster); construct: expressed in transfected cells; experiment: Calcium ion fluorescence (GCaMP6) assay, OR10a stable HEK293 cell line; format: cell-based; settings: ligand concentration 1 (unit not given); threshold 0.05, below shown as 0
Sequence (Q9VYZ1 whole entry, one chain of several): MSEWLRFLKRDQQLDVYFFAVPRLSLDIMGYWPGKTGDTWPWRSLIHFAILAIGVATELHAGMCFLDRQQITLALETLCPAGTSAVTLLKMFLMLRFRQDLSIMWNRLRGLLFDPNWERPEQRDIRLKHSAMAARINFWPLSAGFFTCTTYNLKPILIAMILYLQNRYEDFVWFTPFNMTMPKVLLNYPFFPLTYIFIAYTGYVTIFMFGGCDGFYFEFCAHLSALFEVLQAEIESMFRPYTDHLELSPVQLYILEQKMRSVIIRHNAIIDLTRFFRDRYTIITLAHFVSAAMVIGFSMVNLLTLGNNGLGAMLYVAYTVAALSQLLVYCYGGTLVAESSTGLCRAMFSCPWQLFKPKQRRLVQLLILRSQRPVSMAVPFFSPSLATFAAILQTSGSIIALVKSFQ

[
  {
    "MOLECULE": "CC(=O)OCCC(C)C [isopentyl acetate]",
    "SYSTEM TESTED": "Drosophila OR10a (Drosophila melanogaster)",
    "DF norm AVERAGE OR10a": 0.08825
  },
  {
    "MOLECULE": "Cc1ccccc1C",
    "SYSTEM TESTED": "Drosophila OR10a (Drosophila melanogaster)",
    "DF norm AVERAGE OR10a": 0
  },
  {
    "MOLECULE": "Cc1ccc(C(C)C)cc1",
    "SYSTEM TESTED": "Drosophila OR10a (Drosophila melanogaster)",
    "DF norm AVERAGE OR10a": 0
  },
  {
    "MOLECULE": "C=CCc1ccc(O)c(OC)c1",
    "SYSTEM TESTED": "Drosophila OR10a (Drosophila melanogaster)",
    "DF norm AVERAGE OR10a": 0.08485
  },
  {
    "MOLECULE": "CCc1ccccc1",
    "SYSTEM TESTED": "Drosophila OR10a (Drosophila melanogaster)",
    "DF norm AVERAGE OR10a": 0.1713
  },
  {
    "MOLECULE": "CCCCCCCCCC=O",
    "SYSTEM TESTED": "Drosophila OR10a (Drosophila melanogaster)",
    "DF norm AVERAGE OR10a": 0
  },
  {
    "MOLECULE": "CCCC(=O)OCC [ethyl butyrate]",
    "SYSTEM TESTED": "Drosophila OR10a (Drosophila melanogaster)",
    "DF norm AVERAGE OR10a": 0
  }
]

---

target: Drosophila OR47a (Drosophila melanogaster, UniProt P81921); construct: expressed in transfected cells; assay: Calcium ion fluorescence (GCaMP6) assay, OR47a stable HEK293 cell line; format: cell-based; conditions: OR47a cell line; odorant cc. 1 µM; mean of biological replicates
Sequence (P81921 whole entry, one chain of several, the tested form may be a part): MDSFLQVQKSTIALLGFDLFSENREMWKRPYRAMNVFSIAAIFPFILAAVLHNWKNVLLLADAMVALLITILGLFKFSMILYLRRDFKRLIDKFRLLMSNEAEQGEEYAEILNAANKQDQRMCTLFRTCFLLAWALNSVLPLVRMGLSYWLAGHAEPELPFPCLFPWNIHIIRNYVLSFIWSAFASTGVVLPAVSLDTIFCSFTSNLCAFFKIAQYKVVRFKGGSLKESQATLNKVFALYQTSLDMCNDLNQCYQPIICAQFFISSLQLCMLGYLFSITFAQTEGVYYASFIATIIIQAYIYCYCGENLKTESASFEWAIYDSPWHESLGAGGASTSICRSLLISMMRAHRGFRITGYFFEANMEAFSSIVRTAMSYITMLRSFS
READOUT LABEL: Average response

[
  {
    "MOLECULE": "CC1=CCC23CC1C(C)(C)C2CCC3C (stereo not shown)",
    "OBSERVED MEASUREMENT": 0.00
  },
  {
    "MOLECULE": "CCCCCC(O)CC (stereo not shown)",
    "OBSERVED MEASUREMENT": 0.00
  },
  {
    "MOLECULE": "Cc1ccccc1",
    "OBSERVED MEASUREMENT": 0.00
  },
  {
    "MOLECULE": "C=CC(O)CCCCC (stereo not shown)",
    "OBSERVED MEASUREMENT": 0.00
  },
  {
    "MOLECULE": "CCCCC(C)O (stereo not shown)",
    "OBSERVED MEASUREMENT": 0.04
  },
  {
    "MOLECULE": "Cc1cccc(C)c1",
    "OBSERVED MEASUREMENT": 0.00
  },
  {
    "MOLECULE": "CCc1ccccc1",
    "OBSERVED MEASUREMENT": 0.0189
  }
]

---

Target: Drosophila OR85b (Drosophila melanogaster, UniProt Q9VHQ7)
Construct: expressed in transfected cells
Sequence (Q9VHQ7 1-390): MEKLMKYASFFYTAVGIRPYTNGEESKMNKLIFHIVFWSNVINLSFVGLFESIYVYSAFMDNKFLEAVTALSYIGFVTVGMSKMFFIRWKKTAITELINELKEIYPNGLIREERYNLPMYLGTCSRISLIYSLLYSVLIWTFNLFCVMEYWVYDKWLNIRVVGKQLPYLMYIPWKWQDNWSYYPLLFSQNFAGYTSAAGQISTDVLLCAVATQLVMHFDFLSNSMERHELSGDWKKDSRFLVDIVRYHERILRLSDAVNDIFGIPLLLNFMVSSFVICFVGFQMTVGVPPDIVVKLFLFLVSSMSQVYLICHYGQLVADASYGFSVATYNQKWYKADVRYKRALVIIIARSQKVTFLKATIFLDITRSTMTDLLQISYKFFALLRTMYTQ
Sequence (Q9VNB5 1-486 partner): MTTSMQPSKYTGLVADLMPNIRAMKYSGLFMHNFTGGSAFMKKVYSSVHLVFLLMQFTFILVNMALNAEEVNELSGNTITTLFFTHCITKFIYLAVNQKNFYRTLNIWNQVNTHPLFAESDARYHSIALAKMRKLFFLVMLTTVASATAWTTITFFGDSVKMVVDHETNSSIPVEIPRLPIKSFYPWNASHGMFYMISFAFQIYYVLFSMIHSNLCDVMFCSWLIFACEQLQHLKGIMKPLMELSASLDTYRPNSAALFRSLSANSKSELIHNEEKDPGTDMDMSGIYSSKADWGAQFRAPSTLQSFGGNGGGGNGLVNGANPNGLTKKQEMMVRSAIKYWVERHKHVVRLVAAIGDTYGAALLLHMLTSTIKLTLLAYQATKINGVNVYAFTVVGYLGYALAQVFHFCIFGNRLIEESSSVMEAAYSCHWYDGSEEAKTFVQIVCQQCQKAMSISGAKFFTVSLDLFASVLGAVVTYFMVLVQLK
Experiment: Calcium ion fluorescence (GCaMP6) assay, OR85b stable HEK293 cell line
Type: cell-based
Details: OR85b cell line; cc. 100 µM; VUAA1-normalized response, mean of biological replicates
Label rule, in plain words: Average response of 0.01 and up is yes (1), under 0.01 is no (0).

[
  {
    "COMPOUND": "CCOC(=O)CC [ethyl propionate]",
    "CLASS NAME": "yes (1)"
  },
  {
    "COMPOUND": "CCCCCCCCC(CO)CCCCCC (stereo not shown)",
    "CLASS NAME": "yes (1)"
  },
  {
    "COMPOUND": "CCCCCCCO",
    "CLASS NAME": "no (0)"
  },
  {
    "COMPOUND": "C=C1[C@H]2CC[C@@H]3[C@H]2C(C)(C)CCC[C@]13C [(+)-longifolene]",
    "CLASS NAME": "yes (1)"
  },
  {
    "COMPOUND": "CC(=O)c1ccccc1",
    "CLASS NAME": "no (0)"
  },
  {
    "COMPOUND": "CCOC(=O)c1ccccc1 [ethyl benzoate]",
    "CLASS NAME": "yes (1)"
  },
  {
    "COMPOUND": "CC1=CCC2C(C1)C2(C)C (stereo not shown)",
    "CLASS NAME": "no (0)"
  }
]

---

target: Drosophila OR49b (Drosophila melanogaster); construct: expressed in transfected cells; assay: cell-based; settings: OR49b cell line; odorant cc. 1 µM; mean of biological replicates
Sequence (Q9V6H2 whole entry, one chain of several): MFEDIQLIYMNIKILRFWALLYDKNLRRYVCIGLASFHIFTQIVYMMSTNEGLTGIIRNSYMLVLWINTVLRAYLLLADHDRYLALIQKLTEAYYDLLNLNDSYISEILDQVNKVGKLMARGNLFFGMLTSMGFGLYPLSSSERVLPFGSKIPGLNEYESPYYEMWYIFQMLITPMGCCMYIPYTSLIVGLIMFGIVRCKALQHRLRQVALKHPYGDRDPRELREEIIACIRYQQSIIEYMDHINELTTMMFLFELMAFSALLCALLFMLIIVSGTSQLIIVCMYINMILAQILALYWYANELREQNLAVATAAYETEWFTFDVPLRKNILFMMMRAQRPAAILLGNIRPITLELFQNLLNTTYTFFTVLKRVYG
Each entry below lists one item and its recorded Average response value.

[
  {
    "COMPOUND": "C=C1CCC2(C(C)C)CC12 (stereo not shown)",
    "Average response": 0.00
  },
  {
    "COMPOUND": "CCCCCC(C)O (stereo not shown)",
    "Average response": 0.00
  },
  {
    "COMPOUND": "CC(C)=CCC/C(C)=C/CC/C(C)=C/CO",
    "Average response": 0.00
  },
  {
    "COMPOUND": "Cc1ccccc1C",
    "Average response": 0.00
  },
  {
    "COMPOUND": "CCCC(O)CC (stereo not shown)",
    "Average response": 0.23
  },
  {
    "COMPOUND": "CCCCCOC(C)=O [pentyl acetate]",
    "Average response": 0.08
  },
  {
    "COMPOUND": "CCCCCCCCC(CO)CCCCCC (stereo not shown)",
    "Average response": 0.00
  }
]

---

biological target: Drosophila OR47a (Drosophila melanogaster); construct: expressed in transfected cells; experiment: Calcium ion fluorescence (GCaMP6) assay, OR47a stable HEK293 cell line; format: cell-based; settings: HEK293, read-out: OR47a response (VUAA1-normalized response)
Each entry below lists one item and its recorded activation at 1 µM value.

[
  {
    "COMPOUND": "C=CC(O)CCCCC (stereo not drawn)",
    "activation at 1 µM": "0%"
  },
  {
    "COMPOUND": "Cc1ccc(O)cc1",
    "activation at 1 µM": "10%"
  },
  {
    "COMPOUND": "CCCCCO",
    "activation at 1 µM": "0%"
  },
  {
    "COMPOUND": "O=Cc1ccccc1",
    "activation at 1 µM": "0%"
  },
  {
    "COMPOUND": "CCCCCCCO",
    "activation at 1 µM": "0%"
  },
  {
    "COMPOUND": "CCCCCC(C)=O",
    "activation at 1 µM": "0%"
  }
]

Values compiled from paper PMC10709440.
